Each entry below carries its reported Z Score.
# tgt: T1, P-cadherin-ECD1-3-Fc protein (human P-cadherin-Fc) (human, UniProt P22223 108-440)
# T1 construct: Construct was expressed with signal peptide and pro-peptide (PACE co-transfected to process the propeptide); not shown: hinge and CH2 and CH3 domains of human IgG1
# assay_overview: phage scFv ELISA, coated P-cadherin-ECD1-3-Fc

{"columns": ["binder", "Z Score"],
 "data": [
  ["anti-P-cadherin scFv 153 alanine-mutant H2.5-Ala (scFv, V domains shown, scFv on phage) VH: EVQLVQSGAEVKKPGASVKVSCKASGYTFTSYGISWVRQAPGQGLEWMGWISAANGNTNYAQKLQGRVTMTTDTSTSTAYMELRSLRSDDTAVYYCATIDTANAFGIWGQGTMVTVSS VL: QSVLTQPPSVSAAPGQKVTISCSGSSSNIGNNYVSWYQQLPGTAPKLLIYDNNKRPSGIPDRFSGSKSGTSATLGITGLQTGDEADYYCGTWDSSLSGVVFGGGTKLTVL", -1.4],
  ["anti-P-cadherin scFv 153 alanine-mutant H3.9-Ala (scFv, V domains shown, scFv on phage) VH: EVQLVQSGAEVKKPGASVKVSCKASGYTFTSYGISWVRQAPGQGLEWMGWISAYNGNTNYAQKLQGRVTMTTDTSTSTAYMELRSLRSDDTAVYYCATIDTANAFGAWGQGTMVTVSS VL: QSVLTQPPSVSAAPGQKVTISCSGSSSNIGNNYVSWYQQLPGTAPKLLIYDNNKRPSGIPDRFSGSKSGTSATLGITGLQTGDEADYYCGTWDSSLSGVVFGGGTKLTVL", -0.8],
  ["anti-P-cadherin scFv 153 alanine-mutant H3.5-Ala (scFv, V domains shown, scFv on phage) VH: EVQLVQSGAEVKKPGASVKVSCKASGYTFTSYGISWVRQAPGQGLEWMGWISAYNGNTNYAQKLQGRVTMTTDTSTSTAYMELRSLRSDDTAVYYCATIDTAAAFGIWGQGTMVTVSS VL: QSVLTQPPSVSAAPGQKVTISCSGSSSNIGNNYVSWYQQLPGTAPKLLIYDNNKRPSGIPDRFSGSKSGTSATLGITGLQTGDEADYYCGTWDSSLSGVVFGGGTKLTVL", -0.9]
]}

The origin of these recorded values is patent US20160002357A1.
